The reported numbers originate from paper PMC10786891.

Target: T1, EsCas13d, nuclease-dead (Eubacterium siraeum, UniProt B0MS50, R295A;H300A;R849A;H854A)
T1 sequence: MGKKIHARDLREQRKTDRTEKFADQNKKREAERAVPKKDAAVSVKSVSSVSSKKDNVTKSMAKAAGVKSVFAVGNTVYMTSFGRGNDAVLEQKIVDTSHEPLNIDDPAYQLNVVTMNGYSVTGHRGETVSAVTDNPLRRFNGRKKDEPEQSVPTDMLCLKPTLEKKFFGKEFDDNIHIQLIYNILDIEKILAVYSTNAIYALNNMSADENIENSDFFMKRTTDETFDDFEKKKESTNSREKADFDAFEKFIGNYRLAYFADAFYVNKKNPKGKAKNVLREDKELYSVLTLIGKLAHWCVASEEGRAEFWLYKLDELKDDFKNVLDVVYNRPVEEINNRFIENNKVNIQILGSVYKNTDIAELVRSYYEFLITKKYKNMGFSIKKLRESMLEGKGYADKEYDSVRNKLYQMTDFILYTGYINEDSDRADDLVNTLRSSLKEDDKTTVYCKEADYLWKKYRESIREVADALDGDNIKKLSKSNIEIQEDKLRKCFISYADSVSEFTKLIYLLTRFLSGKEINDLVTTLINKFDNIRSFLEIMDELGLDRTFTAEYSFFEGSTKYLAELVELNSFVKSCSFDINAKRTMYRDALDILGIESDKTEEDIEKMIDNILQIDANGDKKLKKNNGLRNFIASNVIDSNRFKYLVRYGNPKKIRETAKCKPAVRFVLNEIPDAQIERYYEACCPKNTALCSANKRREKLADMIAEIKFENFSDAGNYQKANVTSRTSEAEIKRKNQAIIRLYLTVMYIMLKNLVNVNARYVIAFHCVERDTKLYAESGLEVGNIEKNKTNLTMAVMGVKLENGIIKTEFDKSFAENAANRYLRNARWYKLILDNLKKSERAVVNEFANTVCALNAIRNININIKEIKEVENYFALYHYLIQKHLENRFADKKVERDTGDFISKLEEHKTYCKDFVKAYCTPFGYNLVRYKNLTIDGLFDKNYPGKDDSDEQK
Assay: crRNA (strand 1, pre-loaded); Mg2+; 40 mM Tris-HCl pH 7.5, 150 mM NaCl, 6 mM MgCl2, 1 mM DTT, 0.1% Tween-20, 0.2 mg/ml BSA; 25 C; 10 min per concentration, then washed
Details: tags: His6-TwinStrep-SUMO cleaved; N-terminal SNAP kept (SNAP-Surface 488); label: 3' end held by stalled T7 RNA polymerase
Field: pKd. Provide a value for each of the binders that follow.
Reminder that pKd is minus the log10 of a molar concentration.

Short answer for target 1 insC 3' of 18,insU 3' of 15 (mixed) RNA 1: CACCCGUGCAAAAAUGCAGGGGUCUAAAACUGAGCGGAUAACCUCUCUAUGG RNA 2: GGGAAUGGAUCCACAUCUACGAAUUCGUACCAUACGAGUAGGUUAUCCGCUCACCGAGAUCGGAAGAGCACACGU : pKd was 7.09

Measured pKd of target 1 insU 3' of 21,insU 3' of 20 (mixed) RNA 1: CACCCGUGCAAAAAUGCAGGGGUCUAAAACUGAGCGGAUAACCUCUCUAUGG RNA 2: GGGAAUGGAUCCACAUCUACGAAUUCGUACCUAUUAGAGAGGUUAUCCGCUCACCGAGAUCGGAAGAGCACACGU : 7.56

Kindly note the recorded pKd for target 2 MT 5'PFS GCU 3'PFS UGC (mixed) RNA 1: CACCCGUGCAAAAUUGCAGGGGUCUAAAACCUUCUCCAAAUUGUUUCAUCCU RNA 2: GGGAAUGGAUCCACAUCUACGAAUUCGCUAGGAUGAAACAAUUUGGAGAAGUGCAGAUCGGAAGAGCACACGU , which is 7.89

// recorded pKd for target 3 insU 3' of 22,insU 3' of 4 (mixed) RNA 1: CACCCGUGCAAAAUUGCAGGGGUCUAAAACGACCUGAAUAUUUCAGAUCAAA RNA 2: GGGAAUGGAUCCACAUCUACGAAUUCGUUUUUUGAUCUGAAAUAUUCAGUGUCUGCAGAUCGGAAGAGCACACGU : 8.31

The binder target 1 insC 3' of 5,insC 3' of 3 (mixed) RNA 1: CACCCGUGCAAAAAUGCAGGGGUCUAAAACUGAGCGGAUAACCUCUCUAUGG RNA 2: GGGAAUGGAUCCACAUCUACGAAUUCGUACCAUAGAGAGGUUAUCCGCCUCCACCGAGAUCGGAAGAGCACACGU showed pKd equal to 7.65

Record target 2 MT 5'PFS AAU 3'PFS CCG (mixed) RNA 1: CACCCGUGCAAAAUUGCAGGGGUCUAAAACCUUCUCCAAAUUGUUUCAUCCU RNA 2: GGGAAUGGAUCCACAUCUACGAAUUCAAUAGGAUGAAACAAUUUGGAGAAGCCGAGAUCGGAAGAGCACACGU . Reported pKd: 8.23

Consider target 1 insU 3' of 14,insC 3' of 10 (mixed) RNA 1: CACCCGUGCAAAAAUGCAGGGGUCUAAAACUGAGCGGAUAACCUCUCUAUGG RNA 2: GGGAAUGGAUCCACAUCUACGAAUUCGUACCAUAGAGAUGGUUCAUCCGCUCACCGAGAUCGGAAGAGCACACGU . Its measured pKd is 7.41

For record target 1 C6G,C7A (mixed) RNA 1: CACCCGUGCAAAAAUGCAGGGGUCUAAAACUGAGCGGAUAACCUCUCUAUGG RNA 2: GGGAAUGGAUCCACAUCUACGAAUUCGUACCAUAGAGAGGUUAUAGGCUCACCGAGAUCGGAAGAGCACACGU the listed pKd is 8.05

Noted for target 2 MT 5'PFS AUG 3'PFS CAA (mixed) RNA 1: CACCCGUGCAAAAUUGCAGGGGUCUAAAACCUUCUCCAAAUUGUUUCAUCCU RNA 2: GGGAAUGGAUCCACAUCUACGAAUUCAUGAGGAUGAAACAAUUUGGAGAAGCAAAGAUCGGAAGAGCACACGU : its pKd reads 8.05

# binder target 3 insA 3' of 22,insU 3' of 3 (mixed) RNA 1: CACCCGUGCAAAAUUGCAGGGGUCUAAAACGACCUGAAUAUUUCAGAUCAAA RNA 2: GGGAAUGGAUCCACAUCUACGAAUUCGUUUAUUGAUCUGAAAUAUUCAGGUUCUGCAGAUCGGAAGAGCACACGU ; its pKd = 7.64

// pKd value for target 2 MT 5'PFS CAU 3'PFS UUU (mixed) RNA 1: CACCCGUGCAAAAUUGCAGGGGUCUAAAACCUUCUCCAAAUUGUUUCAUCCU RNA 2: GGGAAUGGAUCCACAUCUACGAAUUCCAUAGGAUGAAACAAUUUGGAGAAGUUUAGAUCGGAAGAGCACACGU : 8.21

In plain terms, target 3 U2G,C16U (mixed) RNA 1: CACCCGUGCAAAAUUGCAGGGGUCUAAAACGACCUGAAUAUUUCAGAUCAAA RNA 2: GGGAAUGGAUCCACAUCUACGAAUUCGUUUUUGAUUUGAAAUAUUCAGGGCUGCAGAUCGGAAGAGCACACGU has a documented pKd of 7.67

get_value(item= target 3 U2G,U8A (mixed) RNA 1: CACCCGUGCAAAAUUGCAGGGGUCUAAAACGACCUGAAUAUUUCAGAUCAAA RNA 2: GGGAAUGGAUCCACAUCUACGAAUUCGUUUUUGAUCUGAAAUAAUCAGGGCUGCAGAUCGGAAGAGCACACGU , readout=pKd) returns 7.66
